# Tested on: P. vulgatus WT;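 further: active when median AUC fell below 0.1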
# protocolDescription: growth AUC normalised to DMSO control (median) (fraction of control); higher = less growth inhibition, active = hit call of the paper;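 active = normalised median growth AUC below 0.1 of DMSO control; inactive = AUC 0.1 or higher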
# conditionDetails: 20 µM
Counter-ions that a name gives are not always drawn.
Give your call using only these classes: TRUE = active, FALSE = inactive

Below are worked cases with known answers.
**Q:** Could you kindly confirm the outcome this assay logged for O=C(O)c1cc(=O)[nH]c(=O)[nH]1 ?
**A:** FALSE

**Q:** Could you kindly confirm the outcome this assay logged for CN1CCN(CC(=O)N2c3ccccc3C(=O)Nc3cccnc32)CC1 [Pirenzepine dihydrochloride] ?
**A:** FALSE

**Q:** Could you kindly confirm the outcome this assay logged for CN(C)CCC=C1c2ccccc2CCc2ccccc21 [Amitryptiline hydrochloride] ?
**A:** FALSE

**Q:** Could you kindly confirm the outcome this assay logged for Cc1cn[nH]c1 [Fomepizole] ?
**A:** FALSE

**Q:** Could you kindly confirm the outcome this assay logged for CC(C)c1ccc2oc3nc(N)c(C(=O)O)cc3c(=O)c2c1 ?
**A:** FALSE

**Q:** Could you kindly confirm the outcome this assay logged for Clc1ccc(COC(Cn2ccnc2)c2ccc(Cl)cc2Cl)cc1 (stereo not drawn) [Econazole nitrate] ?
**A:** FALSE

More entries:
**Q:** Could you kindly confirm the outcome this assay logged for CC1=C(/C=C/C(C)=C/C=C/C(C)=C\C(=O)O)C(C)(C)CCC1 ?
**A:** FALSE

**Q:** Could you kindly confirm the outcome this assay logged for CCC(=O)O[C@]1(C(=O)SCF)[C@H](C)C[C@H]2[C@@H]3C[C@H](F)C4=CC(=O)C=C[C@]4(C)[C@@]3(F)[C@@H](O)C[C@@]21C [Fluticasone propionate] ?
**A:** FALSE

**Q:** Could you kindly confirm the outcome this assay logged for CCc1oc2ccccc2c1C(=O)c1cc(I)c(O)c(I)c1 ?
**A:** FALSE

**Q:** Could you kindly confirm the outcome this assay logged for N#Cc1ccc(Oc2ccc3c(c2)COB3O)cc1 ?
**A:** FALSE

**Q:** Could you kindly confirm the outcome this assay logged for CCN(CC)CCOC(=O)C(c1ccccc1)c1ccccc1 [Adiphenine hydrochloride] ?
**A:** FALSE

**Q:** Could you kindly confirm the outcome this assay logged for CC(=O)[C@H]1CC[C@H]2[C@@H]3CC=C4C[C@@H](O)CC[C@]4(C)[C@H]3CC[C@]12C ?
**A:** FALSE

**Q:** Could you kindly confirm the outcome this assay logged for CC(=O)Nc1ccc(OC(=O)c2ccccc2O)cc1 ?
**A:** FALSE

**Q:** Could you kindly confirm the outcome this assay logged for CCOC1O[C@H]([C@@H](COCc2ccccc2)OCc2ccccc2)[C@H](OCc2ccccc2)[C@H]1O (stereo partly drawn) [Tribenoside] ?
**A:** FALSE

**Q:** Could you kindly confirm the outcome this assay logged for Cc1ccc2c(Cl)cc(Cl)c(O)c2n1 ?
**A:** TRUE

**Q:** Could you kindly confirm the outcome this assay logged for COc1ccc2c(c1)c(CC(=O)OCC(=O)O)c(C)n2C(=O)c1ccc(Cl)cc1 ?
**A:** FALSE

**Q:** Could you kindly confirm the outcome this assay logged for CC(C)NC[C@H](O)COc1cccc2ccccc12 [(S)-(-)-Propranolol hydrochloride] ?
**A:** FALSE

**Q:** Could you kindly confirm the outcome this assay logged for CCCc1nc(C)c2c(=O)nc(-c3cc(S(=O)(=O)N4CCN(CC)CC4)ccc3OCC)[nH]n12 ?
**A:** FALSE
